- TARGET OR TEST SYSTEM: Potassium voltage-gated channel subfamily KQT member 1 (Homo sapiens)
- ASSAY DETAILS: inhibitors of human KCNQ1 channel, primary screen, cell-based, thallium flux, high-throughput (AID 2642);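 further: channel opened by potassium depolarization with thallium stimulus after 20 min compound exposure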
- ASSAY SETUP: CHO-K1 KCNQ1, FluxOR thallium flux fluorescence, at 10 µM
Hit rate of the full screen: of about 310,000 compounds, about 3,900 (1.3%) were called active.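 How the source made its calls: active means compounds whose thallium flux B-score, printed positive for inhibition, exceeds three library SD while starting fluorescence stays within three; inactive means the rest.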 Many of the other results were omitted from the sample, so actives are more common in it than they were.
Labels: class 1 = active, class 0 = inactive

COMPOUND: COc1ccc(NC(=O)c2sc3nc(C)nc(N4CCN(c5ccccn5)CC4)c3c2C)c(OC)c1
CLASSIFICATION: class 0
--
COMPOUND: O=C(CNCCC1=CCCCC1)Nc1ccccc1N1CCCCCC1
CLASSIFICATION: class 1
--
COMPOUND: CCCCOC(=O)Nc1nnc(CC(=O)NCc2ccccc2)s1
CLASSIFICATION: class 0
--
COMPOUND: Cc1nc(N2CCOCC2)c2c(C)c(C(=O)Nc3ccc(C(F)(F)F)cc3)sc2n1
CLASSIFICATION: class 0
--
COMPOUND: COc1ccc(/C=C2\CCCC3C2=NN(C(=O)c2scnc2C)C3c2ccc(OC)cc2)cc1 (stereo not given)
CLASSIFICATION: class 1
--
COMPOUND: COc1ccc(NC(=O)CNC(=O)Cn2ccc3ccccc3c2=O)c(OC)c1
CLASSIFICATION: class 0
--
COMPOUND: COC(=O)c1ccc(COC(=O)C2CCN(S(=O)(=O)c3c(Cl)cccc3Cl)CC2)o1
CLASSIFICATION: class 0
--
COMPOUND: CC(=O)Nc1ccc(C(=O)N(C2=NC(C)CS2)c2ccc(Cl)cc2)cc1 (stereo not given)
CLASSIFICATION: class 0
--
COMPOUND: CC(C)(C)Oc1ncc(Br)c(OC(C)(C)C)n1
CLASSIFICATION: class 0
--
COMPOUND: COc1ccc(-c2nc(N)ncc2-c2ccc(Cl)cc2)c(O)c1
CLASSIFICATION: class 0
